These entries and their values trace back to paper PMC10648875.

Collected pKi values appear next to each entry.
TARGET ENTITY: VIM-1 (Pseudomonas aeruginosa, UniProt A0A0F7KYQ8)
ASSAY SUMMARY: Ki of metallo-β-lactamase inhibition, purified enzyme
Format: biochemical
TEST CONDITIONS: 10-minute preincubation; nitrocefin substrate
pKi: −log10 of the molar value.

# COMPOUND, pKi
records = [
    ("O=C(NC1CCNCC1)[C@@H]1CC[C@@H]2CN1C(=O)N2OS(=O)(=O)O [Relebactam, relebactam]", "< 3.80"),
    ("NC(=O)[C@@H]1CC[C@@H]2CN1C(=O)N2OS(=O)(=O)O [Avibactam, avibactam]", "< 3.80"),
]

Here is another compound to look at.
Task item: What does the record list as pKi for CC1=C[C@@H]2CN(C(=O)N2OS(=O)(=O)O)[C@@H]1C(N)=O [Durlobactam, durlobactam] ?
Reply: < 3.80
